- test.summary: Metabolic stability in liver microsomes (MLM)
- Assay type: in vitro ADME, mice
- stated.conditions: percent remaining at 60 min, 1 μM compound, 0.25 mg/mL protein, 1 mM NADPH
metric.name: Met Stab % (60 mins) MLM (%)
Just the number please, in %, no unit attached.

Solved entries (count: 4):
{"compound": "CC(C)Oc1ccc2c(c1)C/C(=N/Nc1nc3ccccc3s1)C2=O", "value": 19}
{"compound": "c1ccc2c(c1)CCC2c1ccc(-c2nc3ccccc3s2)o1 (centres unmarked)", "value": 1}
{"compound": "O=C1/C(=N\\Nc2nc3ccccc3s2)Cc2c1ccc(F)c2F", "value": 67}
{"compound": "O=C1Nc2cc(F)ccc2/C1=N\\Nc1nc2ccccc2s1", "value": 21}

--- query ---
Please give the measured Met Stab % (60 mins) MLM for this compound: CC(C)c1ccc2c(c1)C/C(=N/Nc1nc3ccccc3s1)C2=O 1

Where these numbers come from: patent US20250205204A1
